I'd appreciate it if you could supply ΔAmax values for the items below.
- MEASURED TARGET: P450 1B1 (Homo sapiens)
- Sequence (Q16678 whole entry): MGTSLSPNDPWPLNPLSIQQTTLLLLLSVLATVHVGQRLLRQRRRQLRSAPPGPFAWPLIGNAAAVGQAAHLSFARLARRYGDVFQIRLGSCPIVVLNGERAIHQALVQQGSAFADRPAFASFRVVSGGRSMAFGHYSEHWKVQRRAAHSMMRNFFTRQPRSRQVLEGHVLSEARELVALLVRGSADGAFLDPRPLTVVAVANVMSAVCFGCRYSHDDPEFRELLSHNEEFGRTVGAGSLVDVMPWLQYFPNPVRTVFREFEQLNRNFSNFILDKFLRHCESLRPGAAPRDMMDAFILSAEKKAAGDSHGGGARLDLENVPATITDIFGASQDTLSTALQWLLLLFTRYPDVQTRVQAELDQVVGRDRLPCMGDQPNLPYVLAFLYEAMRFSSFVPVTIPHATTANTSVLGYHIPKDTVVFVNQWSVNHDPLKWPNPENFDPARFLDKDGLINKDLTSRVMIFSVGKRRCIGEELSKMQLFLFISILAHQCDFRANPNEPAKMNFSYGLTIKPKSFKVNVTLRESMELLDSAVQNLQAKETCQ
- METHOD SUMMARY: Spectral binding titration with purified recombinant P450 1B1
- ASSAY CONTEXT: Reverse Type I binding; 1 µM P450; means ± SE

For the compound N#C[Se]Cc1ccc(C[Se]C#N)cc1 [p-XSC, 1,4-phenylenebis(methylene)selenocyanate] , give its reported ΔAmax.
21 ± 0.48 × 10^−3

For the compound N#C[Se]Cc1cccc(C[Se]C#N)c1 [m-XSC, 1,3-phenylenebis(methylene)selenocyanate] , give its reported ΔAmax.
21 ± 1.0 × 10^−3

For the compound N#C[Se]Cc1ccccc1 [BSC, benzyl selenocyanate] , give its reported ΔAmax.
19 ± 0.11 × 10^−3

For the compound N#C[Se]Cc1ccccc1C[Se]C#N [o-XSC, 1,2-phenylenebis(methylene)selenocyanate] , give its reported ΔAmax.
15 ± 0.51 × 10^−3

###

- MEASURED TARGET: rabbit liver P450 1A2 (Oryctolagus cuniculus, UniProt P00187)
- Sequence (P00187 1-516): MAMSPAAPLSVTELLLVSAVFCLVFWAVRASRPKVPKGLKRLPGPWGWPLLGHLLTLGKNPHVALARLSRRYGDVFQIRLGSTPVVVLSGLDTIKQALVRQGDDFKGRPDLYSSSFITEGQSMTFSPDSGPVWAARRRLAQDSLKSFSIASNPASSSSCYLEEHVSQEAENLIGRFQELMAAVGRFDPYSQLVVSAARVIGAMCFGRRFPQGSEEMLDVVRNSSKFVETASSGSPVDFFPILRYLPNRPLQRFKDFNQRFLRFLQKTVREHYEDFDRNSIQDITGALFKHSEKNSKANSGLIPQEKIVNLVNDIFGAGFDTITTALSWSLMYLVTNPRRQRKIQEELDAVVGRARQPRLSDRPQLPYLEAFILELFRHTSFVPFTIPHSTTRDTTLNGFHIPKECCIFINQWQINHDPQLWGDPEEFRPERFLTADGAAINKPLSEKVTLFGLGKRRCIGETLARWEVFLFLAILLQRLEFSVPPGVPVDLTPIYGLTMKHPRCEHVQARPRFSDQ
MEASURED QUANTITY: pKd
To interpret pKd, take it as minus log10 of a concentration measured in moles per litre.

For the compound N#C[Se]Cc1ccccc1 [BSC, benzyl selenocyanate] , give its reported pKd.
4.05

###

- MEASURED TARGET: P450 2A13 (Homo sapiens)
- Sequence (Q16696 1-494): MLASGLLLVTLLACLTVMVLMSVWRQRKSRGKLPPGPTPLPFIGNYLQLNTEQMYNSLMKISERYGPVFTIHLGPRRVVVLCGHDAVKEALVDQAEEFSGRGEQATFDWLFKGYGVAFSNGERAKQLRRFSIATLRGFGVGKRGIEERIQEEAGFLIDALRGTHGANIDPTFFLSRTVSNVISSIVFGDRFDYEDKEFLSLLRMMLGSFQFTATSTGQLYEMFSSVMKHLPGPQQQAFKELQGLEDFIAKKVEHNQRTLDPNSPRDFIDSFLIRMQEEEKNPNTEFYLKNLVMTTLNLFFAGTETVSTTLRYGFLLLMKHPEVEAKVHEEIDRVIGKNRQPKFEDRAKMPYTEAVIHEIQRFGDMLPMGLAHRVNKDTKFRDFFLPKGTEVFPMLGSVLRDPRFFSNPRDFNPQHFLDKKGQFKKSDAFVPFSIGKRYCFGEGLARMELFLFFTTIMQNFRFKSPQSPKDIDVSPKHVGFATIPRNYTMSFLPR
- METHOD SUMMARY: Spectral binding titration with purified recombinant P450 2A13
- ASSAY CONTEXT: Type I binding; 1 µM P450
MEASURED QUANTITY: ΔAmax/Ks

State, for P450 2A13 (Homo sapiens), measured ΔAmax/Ks of the compound listed here: N#C[Se]Cc1ccccc1 [BSC, benzyl selenocyanate]
470.00 × 10^−3

State, for P450 2A13 (Homo sapiens), measured ΔAmax/Ks of the compound listed here: N#C[Se]Cc1cccc(C[Se]C#N)c1 [m-XSC, 1,3-phenylenebis(methylene)selenocyanate]
395.00 × 10^−3

State, for P450 2A13 (Homo sapiens), measured ΔAmax/Ks of the compound listed here: N#C[Se]Cc1ccccc1C[Se]C#N [o-XSC, 1,2-phenylenebis(methylene)selenocyanate]
92.00 × 10^−3

State, for P450 2A13 (Homo sapiens), measured ΔAmax/Ks of the compound listed here: N#C[Se]Cc1ccc(C[Se]C#N)cc1 [p-XSC, 1,4-phenylenebis(methylene)selenocyanate]
46.00 × 10^−3
